- system: Ara h 2 (purified natural peanut allergen) (Arachis hypogaea) (UniProt Q6PSU2)
- Sequence (Q6PSU2 22-172): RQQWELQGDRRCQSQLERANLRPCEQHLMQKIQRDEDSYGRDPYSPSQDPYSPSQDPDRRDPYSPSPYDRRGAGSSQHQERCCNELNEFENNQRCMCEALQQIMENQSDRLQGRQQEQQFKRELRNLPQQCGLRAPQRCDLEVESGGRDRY
- measurementDescription: BLI, antibody on anti-human IgG Fc sensors, Ara h 2 as analyte, top 6 nM
metric: pKd
One number for each entry, as −log10 of the molar value.

The recorded pKd for entry PA13P1H08 variant rFWRs-N (antibody, human IgG1, V domains shown) VH: QVQLVESGGGVVQPGRSLRLSCAASGFTFSTFGMHWVRQAPGKGLEWVAVISNDGEKSYYADSVKGRFTISRDNSKNTLYLQMNSLRAEDTAVYYCAKVLDYSRYSYYYGMDVWGQGTTVTVSS VL: EIVLTQSPGTLSLSPGGRGTLSCRTSQTINNAHLAWYQHKPGQAPRLLIYGSSERATGVPDRFSGSGSGSDFTLTISSLEAEDFAVYYCQHYGRSPPYTFGPGTKLDIK equals 10.41
